Experiment: Half life upon i.v. administration at the dose of 2 mg/kg in rat
Format: ADME, organism-based
Design: dose 2 mg/kg, route intravenous
Settings: in vivo, iv
readoutLabel: half-life (min)

>>> endpointresult("C(#Cc1ccccn1)C1=CCC(Nc2cccnc2)CC1 (stereo unspecified)")
30
>>> endpointresult("C(#Cc1ccccn1)C1=CC(Oc2ccncc2)CCC1 (stereo unspecified)")
48
>>> endpointresult("O=S(=O)(c1ccc(Br)cc1)N1CC=C(C#Cc2ccccn2)CC1")
66
>>> endpointresult("C(#Cc1ccccn1)C1=CC(Oc2cccnc2)CCC1 (stereo unspecified)")
18
>>> endpointresult("Clc1cncc(OC2C=C(C#Cc3ccccn3)CCC2)c1 (stereo unspecified)")
288
>>> endpointresult("C(#Cc1ccccn1)C1=CCCCC1")
234

---

Quick reference for clearance among some compounds
Test: Clearance upon i.v. administration at the dose of 2 mg/kg in rat
Type: ADME, organism-based
Parameters: dose 2 mg/kg, route intravenous
Conditions: in vivo, iv
readoutLabel: clearance (mL/min/kg)

>>> endpointresult("O=S(=O)(c1ccc(Br)cc1)N1CC=C(C#Cc2ccccn2)CC1")
64
>>> endpointresult("C(#Cc1ccccn1)C1=CCCCC1")
45
>>> endpointresult("C(#Cc1ccccn1)C1=CCC(Nc2cccnc2)CC1 (stereo unspecified)")
34
>>> endpointresult("C(#Cc1ccccn1)C1=CC(Oc2ccncc2)CCC1 (stereo unspecified)")
41
>>> endpointresult("C(#Cc1ccccn1)C1=CC(Oc2cccnc2)CCC1 (stereo unspecified)")
94
>>> endpointresult("Clc1cncc(OC2C=C(C#Cc3ccccn3)CCC2)c1 (stereo unspecified)")
32

---

Assay: Bioavailability in rats when administered 10 mg/kg orally
Type: ADME, organism-based
Conditions: rat, in vivo, po, read-out: Bioavailabiility
readoutLabel: bioavailability (%)

>>> endpointresult("O=S(=O)(c1ccc(Br)cc1)N1CC=C(C#Cc2ccccn2)CC1")
10

---

Assay: Peak plasma concentration in rats when administered 10 mg/kg orally
Type: ADME, organism-based
Parameters: dose 10 mg/kg, route oral
Conditions: rat, po
readoutLabel: Cmax (nM)

>>> endpointresult("O=S(=O)(c1ccc(Br)cc1)N1CC=C(C#Cc2ccccn2)CC1")
20
